Reported koff values are given for each entry in this list.
Target: T1, human folate receptor alpha (hFRα), recombinant protein (human, UniProt P15328 25-233)
T1 construct: Bought recombinant proteins (His-tagged, or biotinylated via Avi-tag, e.g. AcroBiosystems FO1-H82E2, F01-H52H1); also called hFOLR1; huFOLR1
T1 sequence (P15328 25-233 limits assumed): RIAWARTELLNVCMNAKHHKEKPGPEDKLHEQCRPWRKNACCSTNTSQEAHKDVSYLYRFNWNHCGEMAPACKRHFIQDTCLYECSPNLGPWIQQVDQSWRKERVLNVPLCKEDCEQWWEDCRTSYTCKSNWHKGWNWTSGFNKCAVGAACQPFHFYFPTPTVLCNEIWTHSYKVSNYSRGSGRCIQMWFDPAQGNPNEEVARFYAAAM
Assay: BLI, purified VHH
Only the number, expressed in s⁻¹, is required.

P01500008: 2MFR67(Q1E, Q5V, Q108L)-FLAG3-HIS6 (VHH, Entry includes the tags; also called 2MFR67-Flag3-His6) VHH: EVQLVESGGGLVQAGGSLRLSCAASGSGFSGMIMGWYRQAPGKQRELVATVTSHGTTNYADSVKGRFTISREDSKNTVLLQMNSLKPEDTAVYYCNAHFPGIYWGKGTLVTVSS ... 0.00282
P01500006: 2HF042(Q1E, Q5V, A14P, V40A, L79Y, K83R, Q108L)-FLAG3-HIS6 (VHH, Entry includes the tags; also called P0150006) VHH: EVQLVESGGGLVQPGGSLRLSCAASGSGFSGMIMGWYRQAPGKQRELVATVTSHGTTNYADSVKGRFTISRDNAKNTVYLQMNSLRPEDTAVYYCNAHFPGIYWGKGTLVTVSS ... 0.00947
P01500041: P01500001(D72P, N73G)-FLAG3-HIS6 (VHH, also called P0150041) VHH: EVQLVESGGGLVQPGGSLRLSCAASGSGFSGMIMGWYRQAPGKQRELVATVTSHGTTNYADSVKGRFTISRPGAKNTVYLQMNSLRPEDTAVYYCNAHFPGIYWGKGTLVTVSS ... 0.00094

Prompt line: Look up koff for this binder: P01500052: P01500001(V51R, D72E)-FLAG3-HIS6 (VHH, also called P0150052) VHH: EVQLVESGGGLVQPGGSLRLSCAASGSGFSGMIMGWYRQAPGKQRELVATRTSHGTTNYADSVKGRFTISRENAKNTVYLQMNSLRPEDTAVYYCNAHFPGIYWGKGTLVTVSS
Response line: 0.00146
